Quick reference: pKi hM1 of the listed items.
- target_or_system: hM1 mAChR (Homo sapiens, UniProt P11229)
- Construct: expressed in transfected cells; host or cells: CHO-K1 (membrane preparation)
- Sequence (P11229 whole entry): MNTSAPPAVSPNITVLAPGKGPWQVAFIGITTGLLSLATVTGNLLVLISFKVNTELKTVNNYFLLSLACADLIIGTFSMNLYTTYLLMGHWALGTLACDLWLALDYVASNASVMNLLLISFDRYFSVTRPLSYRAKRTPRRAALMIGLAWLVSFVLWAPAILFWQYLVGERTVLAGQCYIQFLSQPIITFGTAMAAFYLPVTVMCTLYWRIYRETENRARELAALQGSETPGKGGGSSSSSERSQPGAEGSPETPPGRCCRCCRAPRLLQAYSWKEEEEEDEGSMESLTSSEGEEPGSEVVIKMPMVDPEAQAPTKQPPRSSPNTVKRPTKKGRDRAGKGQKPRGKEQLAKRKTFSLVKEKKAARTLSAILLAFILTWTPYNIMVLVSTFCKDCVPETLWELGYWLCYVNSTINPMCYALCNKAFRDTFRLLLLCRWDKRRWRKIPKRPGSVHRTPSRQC
- assay_protocol: [3H]NMS inhibition radioligand binding, hM1 in CHO-K1 cell membranes
- settings: [3H]NMS, CHO-K1 cell membranes; mean ± S.E.M.
experimental_readout: pKi hM1

molecule: C[N+](C)(C)C[C@@H]1CO[C@H](c2ccc(Cc3ccccc3)cc2)CO1.[I-] (relative stereo) [14a]
operator: <
value_reported: 5

molecule: C[N+](C)(C)C[C@@H]1CO[C@@H](c2ccccc2)CO1.[I-] (relative stereo)
operator: <
value_reported: 5

molecule: CN(C)C[C@@H]1COC[C@](c2ccccc2)(C2CCCCC2)O1 (relative stereo) [33b]
operator: =
value_reported: 8.86

molecule: C[N+](C)(C)C[C@@H]1COC[C@@H](c2ccc([S+]([O-])c3ccccc3)cc2)O1.[I-] (relative stereo)
operator: =
value_reported: 5.17

molecule: C[N+](C)(C)C[C@@H]1CO[C@@H](c2ccc(Cc3ccccc3)cc2)CO1.[I-] (relative stereo) [14b]
operator: <
value_reported: 5

molecule: C[N+](C)(C)C[C@@H]1CO[C@@H](c2ccccc2)[C@@H](c2ccccc2)O1.[I-] (relative stereo) [18c]
operator: =
value_reported: 7.19

molecule: C[N+](C)(C)C[C@@H]1CO[C@@H](c2ccc(-c3ccccc3)cc2)CO1.[I-] (relative stereo) [13b]
operator: <
value_reported: 5

molecule: C[N+](C)(C)C[C@@H]1COC[C@H](c2ccc([S+]([O-])c3ccccc3)cc2)O1.[I-] (relative stereo)
operator: <
value_reported: 5

molecule: CN(C)C[C@@H]1COC[C@](c2ccccc2)(C2CCCCC2)O1 [(2R,6R)-(+)-33b]
operator: =
value_reported: 7.68

molecule: C[N+](C)(C)C[C@@H]1CO[C@H](c2ccccc2)[C@@H](c2ccccc2)O1.[I-] (relative stereo) [18b]
operator: =
value_reported: 6.30

molecule: C[N+](C)(C)C[C@@H]1CO[C@H](c2ccc(-c3ccccc3)cc2)CO1.[I-] (relative stereo) [13a]
operator: <
value_reported: 5

molecule: C[N+](C)(C)C[C@H]1COC[C@@](c2ccccc2)(C2CCCCC2)O1.[I-] [(2S,6S)-(−)-3b]
operator: =
value_reported: 9.52

molecule: C[N+](C)(C)C[C@@H]1CO[C@H](c2ccc(S(=O)(=O)c3ccccc3)cc2)CO1.[I-] (relative stereo) [17a]
operator: <
value_reported: 5

molecule: C[N+](C)(C)C[C@@H]1COC[C@@](c2ccccc2)(C2CCCCC2)O1.[I-] (relative stereo)
operator: =
value_reported: 8.03

molecule: C[N+](C)(C)C[C@@H]1COC[C@](c2ccccc2)(C2CCCCC2)O1.[I-] (relative stereo)
operator: =
value_reported: 9.28

molecule: C[N+](C)(C)C[C@@H]1CO[C@@H](C(c2ccccc2)c2ccccc2)CO1.[I-] (relative stereo) [12b]
operator: =
value_reported: 6.08

molecule: C[N+](C)(C)C[C@@H]1CO[C@@H](c2ccc(S(=O)(=O)c3ccccc3)cc2)CO1.[I-] (relative stereo) [17b]
operator: <
value_reported: 5

molecule: C[N+](C)(C)C[C@@H]1CO[C@H](c2ccc([S+]([O-])c3ccccc3)cc2)CO1.[I-] (relative stereo) [16a]
operator: <
value_reported: 5

molecule: C[N+](C)(C)C[C@@H]1COC[C@H](c2ccc(-c3ccccc3)cc2)O1.[I-] (relative stereo)
operator: <
value_reported: 5

molecule: C[N+](C)(C)C[C@@H]1COC[C@@H](c2ccc(Sc3ccccc3)cc2)O1.[I-] (relative stereo)
operator: =
value_reported: 5.51

molecule: C[N+](C)(C)C[C@@H]1CO[C@@](c2ccccc2)(C2CCCCC2)CO1.[I-] (relative stereo) [11a]
operator: =
value_reported: 8.01

molecule: C[N+](C)(C)C[C@@H]1CO[C@@H](c2ccc([S+]([O-])c3ccccc3)cc2)CO1.[I-] (relative stereo) [16b]
operator: =
value_reported: 5.17

molecule: C[N+](C)(C)C[C@@H]1CO[C@](c2ccccc2)(C2CCCCC2)CO1.[I-] (relative stereo) [11b]
operator: =
value_reported: 7.81

molecule: C[N+](C)(C)C[C@@H]1COC[C@@H](c2ccc(S(=O)(=O)c3ccccc3)cc2)O1.[I-] (relative stereo)
operator: =
value_reported: 5.29

molecule: C[N+](C)(C)C[C@@H]1COC[C@@H](c2ccc(-c3ccccc3)cc2)O1.[I-] (relative stereo)
operator: <
value_reported: 5

molecule: C[N+](C)(C)C[C@@H]1CO[C@@H](c2ccccc2)[C@H](c2ccccc2)O1.[I-] (relative stereo) [18a]
operator: =
value_reported: 5.85

molecule: C[N+](C)(C)C[C@@H]1CO[C@@H](c2ccc(Sc3ccccc3)cc2)CO1.[I-] (relative stereo) [15b]
operator: =
value_reported: 5.57

molecule: CN(C)C[C@H]1COC[C@@](c2ccccc2)(C2CCCCC2)O1 [(2S,6S)-(−)-33b]
operator: =
value_reported: 9.10

molecule: C[N+](C)(C)C[C@@H]1COC[C@](c2ccccc2)(C2CCCCC2)O1 [(2R,6R)-(+)-3b]
operator: =
value_reported: 8.30
